molecular target: IMPα5 lacking the IBB domain (residues 73-538) (UniProt P52294 73-538); experiment: FP
Sequence (P52294 73-538): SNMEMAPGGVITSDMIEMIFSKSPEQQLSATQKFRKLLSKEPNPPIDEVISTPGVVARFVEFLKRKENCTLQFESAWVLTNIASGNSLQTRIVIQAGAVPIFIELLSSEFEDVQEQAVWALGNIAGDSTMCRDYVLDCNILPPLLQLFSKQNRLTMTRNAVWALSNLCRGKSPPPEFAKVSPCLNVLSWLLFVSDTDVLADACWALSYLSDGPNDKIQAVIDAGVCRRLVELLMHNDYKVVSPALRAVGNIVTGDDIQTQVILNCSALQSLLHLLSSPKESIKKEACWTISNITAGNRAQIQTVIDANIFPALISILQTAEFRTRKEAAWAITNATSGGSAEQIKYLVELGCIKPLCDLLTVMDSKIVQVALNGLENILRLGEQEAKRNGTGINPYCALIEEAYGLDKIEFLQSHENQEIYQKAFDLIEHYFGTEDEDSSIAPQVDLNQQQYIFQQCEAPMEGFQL
Where no end group is shown, it is not given here.
REPORTED_ENDPOINT: pKd
# pKd = -log10(concentration in molar units)

Ask: Consider the binder shown here: RKARKRSHSPTKKLRYVKRRF (also: FITC-tagged) [FITC-tagged MERS-CoV ORF4b NLS peptide (residues 19-39), wild type] What is its recorded pKd?
Reply: 8.02
